Tested on: K562 (human chronic myelogenous leukemia) cells
TEST DETAILS: Cell Titer Glo 2.0 cell viability assay
Assay type: cell-based
APPLIED CONDITIONS: Homo sapiens, K562, 72 h, K562 cells, 72 hours, Cell Titer Glo 2.0; read-out: K562 GI50
Known GI50 of a selection of molecules

CN1CCC(n2cnc3cc(-c4cc(F)c5nn(C)cc5c4)ccc3c2=O)CC1	1000 to 10000 nM

-- ask Given Cc1cn2cc(-c3ccc4c(c3)CCN(C3CCNCC3)C4=O)c(C)cc2n1 , respond with its GI50.
-- reply 1000 to 10000 nM

-- ask Given Cc1c(O)c(-c2ncc3c(=O)n([C@@H]4CC5CC4CN5)ccc3n2)cc2cn(C)nc12 (stereo in doubt) , respond with its GI50.
-- reply 100 to 1000 nM

###

Test system: HTT mRNA
TEST DETAILS: RT-qPCR splicing assay, HTT canonical junction (CJ) and alternative junction (AJ) mRNA
Assay type: cell-based, human
APPLIED CONDITIONS: Homo sapiens, increase in HTT alternative junction (AJ) mRNA, RT-qPCR; read-out: HTT AJ AC50
Structures can show the parent of a compound that is named as a salt.
Known AC50 of a selection of molecules

C[C@H]1C[C@@H](n2ccc3nc(-c4cc(F)c5nn(C)cc5c4)ccc3c2=O)CCN1	100 to 1000 nM
Cc1cc(-c2ccc3c(=O)n(C4CCNC5(CC5)C4)ncc3c2)cc2cn(C)nc12 (stereo not drawn)	100 to 1000 nM

-- ask Given Cc1cc(-c2cc(F)c3c(=O)n(C4CCNC5(CC5)C4)ncc3c2)cc2cn(C)nc12 (stereo not drawn) , respond with its AC50.
-- reply 100 to 1000 nM

-- ask Given CCN1CCC(n2ncc3cc(-c4cc(C)c5nc(C)cn5n4)cc(O)c3c2=O)CC1 , respond with its AC50.
-- reply < 100 nM

-- ask Given Cc1cn2cc(-c3cc(F)c4c(=O)n([C@H]5CCNC5)ccc4c3)cc(F)c2n1 (single isomer, unassigned) , respond with its AC50.
-- reply 1000 to 10000 nM

-- ask Given Cc1cn2nc(-c3ccc4c(=O)n(C5CCNCC5)ccc4c3)cc(Oc3cccc(F)c3)c2n1 [Compound 545, hydrochloride] , respond with its AC50.
-- reply < 100 nM

-- ask Given Cc1cn2cc(-c3ccc4c(=O)n([C@@H]5CCN[C@H](C)C5)ccc4n3)cc(F)c2n1 , respond with its AC50.
-- reply 1000 to 10000 nM

-- ask Given Cc1c(O)c(-c2ncc3c(=O)n(C45CCC(N(C)C)(CC4)C5)ccc3n2)cc2cn(C)nc12 , respond with its AC50.
-- reply 100 to 1000 nM

-- ask Given Cc1c(O)c(-c2cc(F)c3c(=O)n(C4CCNC5(CC5)C4)ccc3c2)cc2cn(C)nc12 (stereo not drawn) , respond with its AC50.
-- reply > 10000 nM

###

Known IC50 of a selection of compounds
System: HTT mRNA
TEST DETAILS: RT-qPCR splicing assay, HTT canonical junction (CJ) and alternative junction (AJ) mRNA
Type: cell-based, human
APPLIED CONDITIONS: Homo sapiens, decrease in HTT canonical junction (CJ) mRNA, RT-qPCR; read-out: HTT CJ IC50
Counter-ions that a name gives are not always drawn.

Below, each entry is followed by its recorded IC50 result.
COc1c(-c2ccc3c(=O)n(C4CCNCC4)ccc3n2)cc2cn(C)nc2c1C	> 10 µM
Cc1cn2nc(-c3ccc4c(=O)n(C5CCNCC5)ncc4n3)cc(C)c2n1	< 0.1 µM
COc1cc(-c2cc(C)c3nc(C)cn3n2)cc2ccn(C3CCNCC3)c(=O)c12	0.1 to 1 µM

-- ask Given Cc1cn2nc(-c3ccc4c(=O)n(C5CCNCC5)ccc4c3)cc(Oc3cccc(F)c3)c2n1 [Compound 545, hydrochloride] , respond with its IC50.
-- reply < 0.1 µM

###

Known pIC50 of a selection of compounds
System: HTT mRNA
TEST DETAILS: RT-qPCR splicing assay, HTT canonical junction (CJ) and alternative junction (AJ) mRNA
Type: cell-based, human
APPLIED CONDITIONS: Homo sapiens; Table 5 panel; canonical junction qPCR; compound concentration having 50% response in CJ decrease; read-out: HTT IC50 (decrease in CJ mRNA levels)
pIC50: −log10 of the molar value. Counter-ions that a name gives are not always drawn.

Cc1cn2cc(-c3cc(F)c4c(=O)n(C5CCNC6(CC6)C5)ccc4c3)cc(Cl)c2n1 (stereo not shown)	> 7.00

-- ask Given Cc1cc(-c2cc3ccn(C4CCN(C5CC5)CC4)c(=O)c3cn2)cc2cn(C)nc12 , respond with its pIC50.
-- reply < 5.00

-- ask Given Cc1cn2nc(-c3cc(N)c4c(=O)n([C@@H]5CCNC5)ccc4c3)cc(C)c2n1 , respond with its pIC50.
-- reply < 5.00

-- ask Given COC(=O)c1cc(-c2ccc3c(=O)n(C4CCNCC4)ccc3c2)nn2cc(C)nc12 , respond with its pIC50.
-- reply 5.00 to 6.00

-- ask Given CCN1CCC(n2ccc3cc(-c4cc(C)c5nn(C)cc5c4)ncc3c2=O)CC1 , respond with its pIC50.
-- reply 5.00 to 6.00

-- ask Given Cc1cn2cc(-c3ccc4c(=O)n(C5CCNCC5)cnc4c3)cc(Cl)c2n1 , respond with its pIC50.
-- reply 6.00 to 7.00

-- ask Given Cc1cn2cc(-c3ccc4c(=O)n([C@@H]5CCN[C@@H](C)C5)cnc4c3)cc(F)c2n1 , respond with its pIC50.
-- reply 6.00 to 7.00

-- ask Given Cc1cn2nc(-c3ccc4c(=O)n(C5CCNCC5)ccc4c3)cc(Oc3ccc(F)cc3)c2n1 [Compound 546, hydrochloride] , respond with its pIC50.
-- reply > 7.00

-- ask Given Cc1cn2nc(-c3ccc4c(=O)n(C5CCNCC5)ccc4c3)cc(OCc3ccccc3)c2n1 , respond with its pIC50.
-- reply 6.00 to 7.00

-- ask Given Cc1cn2cc(-c3cc(F)c4c(=O)n(C5CCNCC5)cnc4c3)cc(C)c2n1 , respond with its pIC50.
-- reply 6.00 to 7.00

-- ask Given Cc1cn2nc(-c3cc(C#N)c4c(=O)n(C5CCNC6(CC6)C5)ccc4c3)cc(C)c2n1 (stereo not shown) , respond with its pIC50.
-- reply > 7.00

-- ask Given Cn1cc2cc(-n3cnc4cc(NC5CCNCC5)ccc4c3=O)ccc2n1 , respond with its pIC50.
-- reply < 5.00

-- ask Given Cn1cc2ccc(-n3cnc4cc(NC5CCNCC5)ccc4c3=O)cc2n1 , respond with its pIC50.
-- reply < 5.00

###

Tested on: MYB
TEST DETAILS: HiBiT protein abundance assay, MYB HiBiT K562 cell line
Format: cell-based, human
APPLIED CONDITIONS: HiBiT K562 cell line, 24 hours, top dose 10 μM; read-out: Effect on protein abundance, MYB (IC50 category)
Structures can show the parent of a compound that is named as a salt.
Known IC50 of a selection of compounds

Below, each entry is followed by its recorded IC50 result.
Cc1cn2cc(-c3ccc4c(=O)n(C5CCNCC5)ncc4c3)c(C)cc2n1	1000 to 10000 nM
Cc1cn2cc(-c3cc(O)c4c(=O)n(C5CCNC5)cnc4c3)cc(C#N)c2n1 (stereo not shown)	1000 to 10000 nM
Cc1cn2nc(-c3ccc4c(=O)n(C5CCNC6(CC6)C5)ccc4c3)cc(C)c2n1 (stereo not shown)	< 100 nM
Cn1cc2c(n1)CCN(c1cc(F)c3c(=O)n(C4CCNCC4)cnc3c1)C2	1000 to 10000 nM
Cc1cc(-c2cc(O)c3c(=O)n(C4CCNC5(CC5)C4)ncc3c2)cc2cn(C)nc12 (stereo not shown)	100 to 1000 nM
COc1c(-c2cc3ccn(C4CCNCC4)c(=O)c3cn2)cc2cn(C)nc2c1C	> 10000 nM
Cc1cn2cc(-c3ccc4c(=O)n(C5CCNCC5)cc(C)c4c3)cc(F)c2n1	< 100 nM
Cc1cn2cc(-n3ccc4cc(N5C[C@@H](C)N[C@@H](C)C5)ccc4c3=O)nc(C)c2n1	> 10000 nM

-- ask Given Cc1cn2nc(-c3ccc4c(=O)n(C5CCN(C)CC5)ccc4c3)cc(C)c2n1 , respond with its IC50.
-- reply 100 to 1000 nM

-- ask Given Cn1cc2nc(-c3ccc4c(=O)n(C5CCNCC5)ccc4n3)c(O)cc2n1 , respond with its IC50.
-- reply < 100 nM

-- ask Given Cc1cn2nc(-c3ccc4c(=O)n(C5CCNCC5)ccc4c3)cc(Oc3ccccc3F)c2n1 [Compound 544, hydrochloride] , respond with its IC50.
-- reply < 100 nM

-- ask Given Cc1cn2nc(-c3cc(F)c4c(=O)n(C5CCN(C)CC5)ncc4c3)cc(C)c2n1 , respond with its IC50.
-- reply < 100 nM

-- ask Given Cc1nc2c(F)cc(-c3ccc4c(c3)CCN(C3CCNCC3)C4=O)cc2s1 , respond with its IC50.
-- reply 1000 to 10000 nM
